src = paper PMC9371724

biological target: T1, HA69 peptide on HLA DQB1*06:02/DQA1*01:02 (DQ0602) (human); test: activation reporter or marker
T1 peptide: AMERNAGSGIIISDT
Quantity: binding result

* TCR275 (TCR) alpha TRAV13-1 TRAJ43 CDR3: CAANNNDMRF beta TRBV4-2 TRBJ1-2 CDR3: CASSQETQGRNYGYTF | recognises
* TCR CAVGATDSWGKFQF / CASSIDATGHSNQPQHF (TCR) alpha TRAV8-3 TRAJ24 CDR3: CAVGATDSWGKFQF beta TRBV19 TRBJ1-5 CDR3: CASSIDATGHSNQPQHF | recognises
* TCR CATDSYNTDKLIF / CASSQGLGPTNYGYTF (TCR) alpha TRAV17 TRAJ34 CDR3: CATDSYNTDKLIF beta TRBV4-3 TRBJ1-2 CDR3: CASSQGLGPTNYGYTF | recognises
* TCR766 (TCR) alpha TRAV17 TRAJ34 CDR3: CATASYNTDKLIF beta TRBV4-3 TRBJ1-5 CDR3: CASSQGATGGSNQPQHF | recognises
* TCR CIVSPHGSGNTGKLIF / CASSIGARGQLFF (TCR) alpha TRAV26-1 TRAJ37 CDR3: CIVSPHGSGNTGKLIF beta TRBV19 TRBJ1-4 CDR3: CASSIGARGQLFF | recognises
* TCR CAGRPNSGGSNYKLTF / CASSGQQALYGYTF (TCR) alpha TRAV35 TRAJ53 CDR3: CAGRPNSGGSNYKLTF beta TRBV19 TRBJ1-2 CDR3: CASSGQQALYGYTF | recognises
